# TARGET_UNDER_TEST: Lp(a) formation (coupling between apo(a) and LDL) (Homo sapiens)
# Sequence (P08519 20-2040): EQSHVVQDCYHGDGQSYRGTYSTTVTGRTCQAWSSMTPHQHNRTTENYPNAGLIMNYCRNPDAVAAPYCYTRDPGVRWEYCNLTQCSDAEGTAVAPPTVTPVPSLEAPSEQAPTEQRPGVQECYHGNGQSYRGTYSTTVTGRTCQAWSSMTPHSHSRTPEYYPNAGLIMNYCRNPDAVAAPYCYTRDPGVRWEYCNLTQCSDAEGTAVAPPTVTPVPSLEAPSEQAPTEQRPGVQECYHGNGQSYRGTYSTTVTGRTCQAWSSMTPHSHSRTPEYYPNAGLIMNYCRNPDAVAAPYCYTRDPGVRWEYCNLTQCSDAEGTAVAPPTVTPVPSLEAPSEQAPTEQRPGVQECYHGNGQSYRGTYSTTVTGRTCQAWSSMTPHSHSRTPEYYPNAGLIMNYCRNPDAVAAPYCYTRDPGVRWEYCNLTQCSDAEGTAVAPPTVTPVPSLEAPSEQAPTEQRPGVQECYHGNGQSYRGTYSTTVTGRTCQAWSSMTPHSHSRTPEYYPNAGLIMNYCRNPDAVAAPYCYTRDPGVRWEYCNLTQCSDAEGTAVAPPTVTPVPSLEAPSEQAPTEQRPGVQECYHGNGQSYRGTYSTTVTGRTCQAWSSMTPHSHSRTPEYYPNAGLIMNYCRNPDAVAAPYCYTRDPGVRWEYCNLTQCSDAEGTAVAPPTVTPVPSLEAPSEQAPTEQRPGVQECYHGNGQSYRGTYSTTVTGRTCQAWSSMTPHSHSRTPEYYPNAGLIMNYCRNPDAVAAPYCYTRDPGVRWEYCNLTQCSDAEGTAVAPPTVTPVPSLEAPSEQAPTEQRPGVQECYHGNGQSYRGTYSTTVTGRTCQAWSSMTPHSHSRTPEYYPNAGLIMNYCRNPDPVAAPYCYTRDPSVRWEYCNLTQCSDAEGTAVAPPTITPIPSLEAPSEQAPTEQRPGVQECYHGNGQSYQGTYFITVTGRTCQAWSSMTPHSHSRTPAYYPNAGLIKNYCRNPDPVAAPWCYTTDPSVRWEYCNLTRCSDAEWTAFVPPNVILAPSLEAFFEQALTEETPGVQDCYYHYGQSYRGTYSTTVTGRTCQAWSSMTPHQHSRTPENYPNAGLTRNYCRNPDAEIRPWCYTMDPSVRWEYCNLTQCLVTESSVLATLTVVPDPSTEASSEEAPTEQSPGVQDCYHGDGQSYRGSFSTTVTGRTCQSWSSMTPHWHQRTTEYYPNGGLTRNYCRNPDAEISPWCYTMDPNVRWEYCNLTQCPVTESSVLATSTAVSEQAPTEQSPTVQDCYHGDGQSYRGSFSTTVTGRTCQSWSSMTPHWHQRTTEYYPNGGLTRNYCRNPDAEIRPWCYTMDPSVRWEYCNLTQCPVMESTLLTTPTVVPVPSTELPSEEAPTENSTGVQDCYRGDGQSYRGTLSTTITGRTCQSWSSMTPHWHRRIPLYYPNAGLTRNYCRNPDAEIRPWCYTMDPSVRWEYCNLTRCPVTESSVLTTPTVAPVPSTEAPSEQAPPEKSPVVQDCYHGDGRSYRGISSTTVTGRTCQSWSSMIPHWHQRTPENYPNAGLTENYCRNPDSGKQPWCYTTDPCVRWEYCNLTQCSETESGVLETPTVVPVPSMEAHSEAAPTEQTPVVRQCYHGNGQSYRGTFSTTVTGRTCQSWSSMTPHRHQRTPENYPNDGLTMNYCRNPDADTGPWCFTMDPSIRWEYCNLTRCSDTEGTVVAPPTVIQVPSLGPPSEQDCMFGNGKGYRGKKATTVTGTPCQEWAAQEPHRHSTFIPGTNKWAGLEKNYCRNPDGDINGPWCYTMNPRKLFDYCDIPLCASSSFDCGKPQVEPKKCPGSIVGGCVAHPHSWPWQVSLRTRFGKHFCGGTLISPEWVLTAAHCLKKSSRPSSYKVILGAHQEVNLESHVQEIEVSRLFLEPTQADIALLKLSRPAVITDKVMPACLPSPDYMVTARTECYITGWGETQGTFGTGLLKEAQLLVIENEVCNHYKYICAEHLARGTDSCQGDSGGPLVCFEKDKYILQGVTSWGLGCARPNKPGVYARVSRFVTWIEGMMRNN
# PROCEDURE_SUMMARY: in vitro Lp(a) formation assay: coupling of recombinant human apo(a) with LDL, western blot with densitometry or visual inspection
# Type: biochemical
# DETAILS: 37° C. for 30 minutes; western blot; read-out: IC50 (concentration required to inhibit 50% of Lp(a) formation)
No end group written: not given here.
MEASURED_METRIC: IC50 (µM)
State just the number; it will be interpreted in µM.

[ask] // lookup IC50 for IQCYK [Ile--Gln--Cys--Tyr--Lys, Ile-Gln-Cys-Tyr-Lys]
[reply] 109
